- System: Streptococcus sp.
- Assay Procedure: in vitro antibacterial evaluation, MIC by broth dilution
- Assay type: cell-based
- Measurement Setup: broth dilution, 18 hours at 35° C.
Numbered stars: 1 amine (or outer) side, 2 acyl side, 3 side chain; on linkers, the order of the positions; unused ones are H or OH. Square brackets hold non-standard residues; d marks the D form. Peptide text beside a SMILES is read from it. ξ: configuration not given here. X3 = CC1(C)OCC2OC(N3C(=N)NCC3C(O)C(N[*:1])C(=O)[*:2])C3OC(C)(C)OC3C2O1; ξEnduracididine(βξ-OH,4'ξ) = N=C1NCC(C(O)C(N)C(=O)O)N1; ξPhe(βξ-Me) = CC(c1ccccc1)C(N)C(=O)O
The entries below come with measured MIC Streptococcus agalactiae (GC 4564) values attached.
Value Kind: MIC Streptococcus agalactiae (GC 4564)

Molecule	Assay Target	Value Kind	Result
CC(c1ccccc1)C1NC(=O)CNC(=O)C(CO)NC(=O)C(C(O)C2CN(Cc3ccccc3)C(=NCc3ccccc3)N2C2OC(CO)C(O)C(O)C2O)NC(=O)C(C(O)C2CN(Cc3ccccc3)C(=NCc3ccccc3)N2Cc2ccccc2)NC(=O)C(Cc2ccc(OC3OC(CO)C(OC4OC(CO)C(O)C(O)C4O)C(O)C3O)cc2)NC1=O (stereo not drawn)	Streptococcus sp.	MIC Streptococcus agalactiae (GC 4564)	>128 µg/mL
CC(c1ccccc1)C1NC(=O)CNC(=O)C(CO)NC(=O)C(C(O)C2CNC(=N)N2C2OC3COC(C)(C)OC3C3OC(C)(C)OC32)NC(=O)C(C(O)C2CNC(=N)N2)NC(=O)C(Cc2ccc(O)cc2)NC1=O (stereo not drawn) [Example 247] (cyclo(G[ξPhe(βξ-Me)]Y[ξEnduracididine(βξ-OH,4'ξ)][X3]S); configuration not given here)	Streptococcus sp.	MIC Streptococcus agalactiae (GC 4564)	>64 µg/mL
CCCCCNC(=O)OC1C(CO)OC(OC2C(CO)OC(Oc3ccc(CC4NC(=O)C(C(C)c5ccccc5)NC(=O)CNC(=O)C(CO)NC(=O)C(C(O)C5CNC(=N)N5C5OC(CO)C(O)C(O)C5O)NC(=O)C(C(O)C5CNC(=N)N5)NC4=O)cc3)C(O)C2O)C(O)C1O (stereo not drawn)	Streptococcus sp.	MIC Streptococcus agalactiae (GC 4564)	>64 µg/mL

###

The entries below come with measured MIC Escherichia coli (GC 4560) values attached.
- Test system: Escherichia coli
- Assay Procedure: in vitro antibacterial evaluation, MIC by broth dilution
- Assay type: cell-based
- Measurement Setup: 18 hours at 35° C., strain GC 4560

Compound	MIC Escherichia coli (GC 4560)
CC(c1ccccc1)C1NC(=O)CNC(=O)C(CO)NC(=O)C(C(O)C2CNC(=N)N2C2OC(CO)C(O)C(O)C2O)NC(=O)C(C(O)C2CNC(=N)N2)NC(=O)C(Cc2ccc(OC3OC(CO)C(OC4OC5COC(c6ccsc6)OC5C(O)C4O)C(O)C3O)cc2)NC1=O (stereo not shown)	<0.5 µg/mL
CC(c1ccccc1)C1NC(=O)CNC(=O)C(CO)NC(=O)C(C(O)C2CNC(=N)N2C2OC(CO)C(O)C(O)C2O)NC(=O)C(C(O)C2CNC(=N)N2)NC(=O)C(Cc2ccc(OC3OC(CO)C(OC4OC(CO)C(O)C5OC(c6ccccc6)OC45)C(O)C3O)cc2)NC1=O (single isomer, unassigned) [Example 104a]	0.5 to 16 µg/mL
CC(c1ccccc1)C1NC(=O)CNC(=O)C(CO)NC(=O)C(C(O)C2CNC(=N)N2C2OC(CO)C(O)C(O)C2O)NC(=O)C(C(O)C2CNC(=N)N2)NC(=O)C(Cc2ccc(OC3OC(CO)C(OC4OC5COC6(OC5C(O)C4O)C4CC5CC(C4)CC6C5)C(O)C3O)cc2)NC1=O (stereo not shown)	0.5 to 2 µg/mL
CC(c1ccccc1)C1NC(=O)CNC(=O)C(CO)NC(=O)C(C(O)C2CNC(=N)N2C2OC(CO)C(O)C(O)C2O)NC(=O)C(C(O)C2CNC(=N)N2)NC(=O)C(Cc2ccc(OC3OC(CO)C(OC4OC5COC(c6ccccc6)OC5C(O)C4O)C(O)C3O)cc2)NC1=O (stereo not shown)	0.5 to 1 µg/mL
